Tested on: Setaria faberi (SETFA)
runDescription: Example B post-emergence herbicidal greenhouse test
Assay type: in vivo
settings: 360 h, evaluated after 15 days, 100=total damage to plant, 0=no damage
pest or weed control at 125 g/ha reference
Express the result in % but write the number alone.

compound	result
CCc1ccc(-c2ccc(F)c(Cl)c2)cc1C1=C(O)[C@H]2CC[C@H](C2)C1=O (single isomer, unassigned)	70
Cc1ccc(-c2ccc(Cl)cc2C)cc1C1=C(O)[C@H]2CC[C@H](C2)C1=O (single isomer, unassigned)	60
Cc1cc(-c2ccccc2)cc(C)c1C1=C(O)[C@H]2CC[C@H](C2)C1=O	0
Cc1ccc(-c2ccc(Cl)c(F)c2)cc1C1=C(O)[C@H]2CC[C@H](C2)C1=O (single isomer, unassigned)	80

Report pest or weed control at 125 g/ha from Setaria faberi (SETFA) testing of CCc1ccc(-c2ccc(Cl)c(Cl)c2)cc1C1=C(O)[C@H]2CC[C@H](C2)C1=O (single isomer, unassigned)
70

All figures here come from patent US8828908B2.
